target: T1, CD3 on Jurkat cells (human); assay: FACS on Jurkat cells, Alexa 488 secondary antibody, MFI [a]
T1 construct: native, on the surface of Jurkat cells; The sheets print only 'Jurkat'; also called human CD3; TCR/CD3 complex on the human T cell line Jurkat
T1 sequence (P07766 23-207, chain 1 of 4): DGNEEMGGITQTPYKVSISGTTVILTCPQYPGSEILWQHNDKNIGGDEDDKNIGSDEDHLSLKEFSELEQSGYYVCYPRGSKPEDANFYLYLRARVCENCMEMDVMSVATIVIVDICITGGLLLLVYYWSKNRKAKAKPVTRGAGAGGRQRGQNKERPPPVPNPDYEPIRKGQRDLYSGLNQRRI
T1 sequence (P09693 23-182, chain 2 of 4, further chain): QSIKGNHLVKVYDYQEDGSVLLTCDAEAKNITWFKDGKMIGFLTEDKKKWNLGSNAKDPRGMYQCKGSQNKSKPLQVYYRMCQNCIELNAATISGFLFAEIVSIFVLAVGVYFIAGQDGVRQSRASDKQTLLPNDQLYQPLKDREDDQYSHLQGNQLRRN
T1 sequence (P04234 22-171, chain 3 of 4, further chain): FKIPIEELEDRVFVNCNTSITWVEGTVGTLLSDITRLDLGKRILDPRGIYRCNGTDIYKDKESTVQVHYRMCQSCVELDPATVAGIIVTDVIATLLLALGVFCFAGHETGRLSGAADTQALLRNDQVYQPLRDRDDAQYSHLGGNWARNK
T1 sequence (P20963 22-164, chain 4 of 4, further chain): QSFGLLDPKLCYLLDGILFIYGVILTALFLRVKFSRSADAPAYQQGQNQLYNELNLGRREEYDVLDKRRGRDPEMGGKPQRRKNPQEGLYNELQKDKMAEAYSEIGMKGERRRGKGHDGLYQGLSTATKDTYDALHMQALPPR
observable: EC50 (read off the curve)

Kindly note the recorded EC50 (read off the curve) for hAb001-26 (antibody, V domains shown, Humanized; constant regions not specified) VH: QVQLVQSGAEVKKPGASVKVSCKASGYSFTNYYMHWVRQAPGQRLEWIGWTYPGNNNIKYNEKFKGRATITADTSASTAYMELSSLRSEDTAVYYCARDGYGYYFFDYWGQGTLVTVSS VL: DIVMTQSPDSLAVSLGERATINCKSSQSLLNNRTRKNYLAWYQQKPGQPPKLLIYWASTRESGVPDRFTGSGSGTDFTLTISSLQAEDVAVYYCKQSYTLRTFGGGTKLEIK , which is ~0.3 nM
